Reported KD relative to parental chimera is given for each of the following binders.
assayed_system: T1, Human VSIG4-L-His (human, UniProt Q9Y279 20-283)
T1 construct: long isoform ECD with His tag; also called hVSIG4-L
T1 sequence: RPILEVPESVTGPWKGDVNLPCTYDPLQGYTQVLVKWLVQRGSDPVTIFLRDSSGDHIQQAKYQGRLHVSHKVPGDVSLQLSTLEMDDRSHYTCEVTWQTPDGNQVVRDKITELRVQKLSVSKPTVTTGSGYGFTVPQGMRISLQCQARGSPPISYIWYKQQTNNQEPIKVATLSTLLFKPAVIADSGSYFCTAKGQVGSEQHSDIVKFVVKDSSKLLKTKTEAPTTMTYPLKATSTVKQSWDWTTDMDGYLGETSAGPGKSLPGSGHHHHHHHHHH
experimental_protocol: BLI, IgG on AHC sensor, antigen 100 nM
Please state the number and follow it with the unit.

binder	result
h12A12.A humanized IgG4 (S228P) kappa (antibody, V domains shown) VH: QVQMVQSGAEVKKPGASVKVSCKASGYTFTNYWMHWVRQAPGQGLEWMGYINPSTGYTDYNQKFQGRVTMTADKSTSTAYMELSSLRSEDTAVYYCIRGSDYYGRDYWGQGTTVTVSS VL: DIQMTQSPSSLSASVGDRVTITCQASQDISNYLNWYQQKPGKALKLLIYYTSRLHSGVPSRFSGSGSGTDYTFTISSLQPEDIATYFCRQGNTLPWTFGGGTKLEIKR	0.7 fold

Tell me the measured KD relative to parental chimera of h14D12.A humanized IgG4 (S228P) kappa (antibody, V domains shown) VH: QIQLVQSGSELKKPGASVKVSCKASGYTFTNYGMNWVRQAPGQGLEWMGLINTYTGEPTYADGFTGRFVFSLDTSASTAYLQISSLKAEDTAVYFCARERIYGYLHYFDYWGQGTTVTVSS VL: DVVMTQSPDSLAVSLGERATINCKASQSVDYDGDSYMNWYQQKPGQPPKLLIYAASNLESGVPDRFSGSGSGTDFTLTISSLQAEDVAVYYCQQSNEDPRTFGGGTKLEIKR , please.
1.1 fold

Tell me the measured KD relative to parental chimera of h12A12.B humanized IgG4 (S228P) kappa (antibody, V domains shown) VH: QVQMVQSGAEVKKPGASVKVSCKASGYTFTNYWMHWVRQAPGQGLEWMGYINPSTGYTDYNQKFQGRVTMTADKSTSTAYMELSSLRSEDTAVYYCIRGSDYYGRDYWGQGTTVTVSS VL: DIQMTQSPSSLSASVGDRVTITCQASQDISNYLNWYQQKPGKALKLLIYYTSRLHTGVPSRFSGSGSGTDYTFTISSLQPEDIATYYCRQGNTLPWTFGGGTKLEIKR , please.
0.6 fold

Tell me the measured KD relative to parental chimera of h14C05.F humanized IgG4 (S228P) kappa (antibody, V domains shown) VH: QVQLVQSGSELKKPGASVKVSCKASGYTFTNYGMNWVRQAPGQGLEWMGSINTYTGEATYADDFKGRFVFSLDTSVNTAYLQISSLKAEDTAVYYCARGDYYGRGTWFAYWGQGTLVTVSS VL: ETQVTQSPSSLSASVGDRVTITCRASQDVSTAVAWYQQKPGKAPKLLIYSASYRYPGVPSRFSGSGSGTDFTLTISSLQPEDFATYYCQQDYSSPWTFGGGTKLEIKR , please.
0.6 fold

Tell me the measured KD relative to parental chimera of h13H11.E humanized IgG4 (S228P) kappa (antibody, V domains shown) VH: QIQLVQSGAEVKKPGASVKVSCKASGYTFENFGMNWVRQAPGQRLEWMGWINTYTGEATYADKFQGRVTITLDTSASTAYMELSSLRSEDTAVYYCARDGGFRHFDVWGQGTTVTVSS VL: DTQVTQSPSSLSASVGDRVTITCQTSTDISNYMNWYQQKPGKAPKLLISEGNTLRPGVPSRFSSSGSGTDFTFTISSLQPEDIATYYCLQSDNLPLTFGGGTKLEIKR , please.
1.4 fold
